Target: acetylcholine muscarinic M1 receptor (Homo sapiens, UniProt P11229)
Construct: also called CHOK1/hM1)
Sequence (P11229 whole entry): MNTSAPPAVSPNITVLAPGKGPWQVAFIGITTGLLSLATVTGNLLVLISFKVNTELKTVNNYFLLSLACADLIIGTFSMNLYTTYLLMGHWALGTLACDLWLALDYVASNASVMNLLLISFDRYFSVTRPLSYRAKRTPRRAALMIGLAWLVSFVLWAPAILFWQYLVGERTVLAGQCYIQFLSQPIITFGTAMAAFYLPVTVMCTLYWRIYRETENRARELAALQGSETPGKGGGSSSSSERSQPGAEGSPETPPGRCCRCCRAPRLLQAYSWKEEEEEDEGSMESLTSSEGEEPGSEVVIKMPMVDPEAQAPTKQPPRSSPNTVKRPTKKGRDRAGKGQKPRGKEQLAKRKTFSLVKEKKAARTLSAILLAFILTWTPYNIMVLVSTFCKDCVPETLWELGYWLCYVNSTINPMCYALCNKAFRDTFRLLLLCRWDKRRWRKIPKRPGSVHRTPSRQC
Experiment: muscarinic FLIPR assay: potentiation of acetylcholine (EC20)-stimulated intracellular Ca2+ in CHOnfat/hM1 cells
Settings: 4 min preincubation, then EC20 acetylcholine (3 nM final), positive allosteric modulator activity, read-out: IP Value (inflection point)
Method: The assay studies the effect of one or several concentrations of test compounds on basal or acetylcholine-stimulated Ca^2+ levels using FLIPR. Compounds are prepared and subjected to a preincubation period of 4 min. Thereafter, a single EC20 concentration of acetylcholine is added to each well (3 nM final). The intracellular Ca^2+ level of each sample is measured and compared to an acetylcholine control to determine any modulatory activity. […]
I'd appreciate it if you could supply EC50 values for the items below.
Quick reminder: number only, in nM, skip the unit.

Req: Item: Cc1ccnc(C2(C#N)CCN(Cc3cc4c(=O)n([C@H]5CCCC[C@@H]5O)cnc4c4ccncc34)CC2)c1 Test system: acetylcholine muscarinic M1 receptor (Homo sapiens, UniProt P11229) Read-out: EC50 Value: ?
Resp: 21

Req: Item: N#CC1(c2ccccn2)CCN(Cc2cc3c(=O)n([C@H]4CCCC[C@@H]4O)cnc3c3ccccc23)CC1 (racemic) [Example 1] Test system: acetylcholine muscarinic M1 receptor (Homo sapiens, UniProt P11229) Read-out: EC50 Value: ?
Resp: 45

Req: Item: N#CC1(c2ccccn2)CCN(Cc2cc3c(=O)n([C@H]4CCOC[C@@H]4O)cnc3c3ccccc23)CC1 Test system: acetylcholine muscarinic M1 receptor (Homo sapiens, UniProt P11229) Read-out: EC50 Value: ?
Resp: 31

Req: Item: O=c1c2cc(CN3CCC(F)(c4ccccn4)CC3)c3ccccc3c2ncn1[C@H]1CCCC[C@@H]1O Test system: acetylcholine muscarinic M1 receptor (Homo sapiens, UniProt P11229) Read-out: EC50 Value: ?
Resp: 105

Req: Item: O=c1c2cc(CN3CCN(c4ccsc4)CC3)c3ccccc3c2ncn1[C@H]1CCCC[C@@H]1O Test system: acetylcholine muscarinic M1 receptor (Homo sapiens, UniProt P11229) Read-out: EC50 Value: ?
Resp: 387

Req: Item: Cn1cc(N2CCN(Cc3cc4c(=O)n([C@H]5CCCC[C@@H]5O)cnc4c4ccccc34)CC2=O)cn1 (racemic) Test system: acetylcholine muscarinic M1 receptor (Homo sapiens, UniProt P11229) Read-out: EC50 Value: ?
Resp: 44

Req: Item: N#CC1(c2ccccn2)CC[N+]([O-])(Cc2cc3c(=O)n([C@H]4CCCC[C@@H]4O)cnc3c3ccccc23)CC1 (stereo partly drawn) Test system: acetylcholine muscarinic M1 receptor (Homo sapiens, UniProt P11229) Read-out: EC50 Value: ?
Resp: 3880

Req: Item: CC1(C#N)CCN(Cc2cc3c(=O)n([C@H]4CCCC[C@@H]4O)cnc3c3ccccc23)CC1 Test system: acetylcholine muscarinic M1 receptor (Homo sapiens, UniProt P11229) Read-out: EC50 Value: ?
Resp: 339

Req: Item: N#CC1(c2ccccn2)CCN(Cc2cc3c(=O)n([C@H]4CCCC[C@@H]4O)cnc3c3ccccc23)CC1 [Example 2] Test system: acetylcholine muscarinic M1 receptor (Homo sapiens, UniProt P11229) Read-out: EC50 Value: ?
Resp: 18

Source: patent US8383638B2
